- protocol_notes: qHTS Assay for Lipid Storage Modulators in Drosophila S3 Cells
- test_parameters: BODIPY lipid droplet fluorescence, 18-24 h, cells fed with added oleic acid; series mostly up to 46.1 µM
- Text: NIH Molecular Libraries Probe Production Centers Network [MLPCN] NIH Chemical Genomics Center [NCGC] […] Triacsin C (Sigma-Aldrich T-4540), an inhibitor of long-chain fatty acyl CoA synthetase that blocks synthesis of triglycerides, was used as a positive control for lipid under-storage. […] Fluorescence was detected by excitation of the fluorophores with a 488-nm laser on an Acumen Explorer (TTP Lab Tech). […] Cells were detected using channel 3 (575-640 nm) with 5-um width and 100-um depth filters. […]
Hit rate of the full screen: of about 320,000 compounds, about 2,100 (0.66%) were called active. Roughly 53% stayed inconclusive and do not appear here. Calls follow the shape of the dose curve; as a rule, active = well fitted inhibition curve with a large enough effect in the signal ratio, with a control signal flat (not every such curve was filed as active); inconclusive = small, poorly fitted or top-dose-only effect, or effect the other way, or a change in a side signal; inactive = flat fitted curve, though single readings scatter; the % refers to the signal ratio. The entries come from a sample that favours actives as a whole.
Pick from Yes = active, No = inactive when you respond.

CC1=CC(C)(C)NC(=S)N1C(C)c1ccccc1 (centres undefined); No
O=C(O)c1ccc(NS(=O)(=O)c2cc(Cl)ccc2Cl)cc1; No
CC(C)Nc1nc2n(c(=O)n1)CCN2C(C)C; Yes
CC1(C)CC(N2CCN(C(c3ccccc3)c3ccccc3)CC2)=CC(=[N+]2CCCCC2)C1; Yes

Tell me the assay call for CCC(CC)C(=O)N(c1ccc(F)cc1)C1C=CS(=O)(=O)C1 (centres undefined) please. No

// outcome(item) with item = "COc1ccc(C(=O)N2CCCCC2)cc1S(=O)(=O)Nc1cccc(C(=O)O)c1" No

For CC1(C)Cc2c(cnn2-c2ccc(F)cc2)C(NC(=O)C2=NNC(=O)CC2)C1 (centres undefined) , which call appears in the assay record? No

---

- protocol_notes: qHTS Assay for Lipid Storage Modulators in Drosophila S3 Cells;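 as to cell number change: cells counted by Cell Tracker Red CMTPX staining in the red channel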
- test_parameters: BODIPY lipid droplet fluorescence, 18-24 h, cells fed with added oleic acid; measured here: cell count max response
- Description: NIH Molecular Libraries Probe Production Centers Network [MLPCN] NIH Chemical Genomics Center [NCGC] […] Triacsin C (Sigma-Aldrich T-4540), an inhibitor of long-chain fatty acyl CoA synthetase that blocks synthesis of triglycerides, was used as a positive control for lipid under-storage. […] Fluorescence was detected by excitation of the fluorophores with a 488-nm laser on an Acumen Explorer (TTP Lab Tech). […] Cells were detected using channel 3 (575-640 nm) with 5-um width and 100-um depth filters. […]
Among all 320,000 compounds or so, about 2,100 (0.66%) were called active. Not shown: some 53% with an inconclusive outcome. The entries come from a sample that favours actives as a whole.
recorded_endpoint: cell number change (%)
# output: bare number, implied unit %

# example entries with known answers
Cc1ccc(CSc2nnc([C@@H]3CCCN3C(=O)OC(C)(C)C)o2)cc1; 17.7
CCSc1nnc([C@@H]2CCCN2C(=O)OC(C)(C)C)o1; 6.53
CC(C)Sc1nnc([C@@H]2CCCN2C(=O)OC(C)(C)C)o1; -3.74
O=C(CNC(=O)COc1ccccc1)NCc1ccccc1F; 0.16
CCN(C(=O)COC(=O)c1ccc(Cl)c(N)c1)C1CCS(=O)(=O)C1 (centres undefined); 6.77

Provide only the value of recorded cell number change for CC1CCCCC1NC(=O)c1ccc(S(=O)(=O)NCC2CCCO2)cc1 (centres undefined) 3.19

Return cell number change (reported value) for this molecule: "O=C1OCc2cc(-n3cccc3)ccc21" -1.52

Please indicate cell number change recorded for "C=C(C)CSc1nnc([C@@H]2CCCN2C(=O)OC(C)(C)C)o1" 9.31

In one line, give reported cell number change of the entry O=C(O)C(C(O)c1ccc([N+](=O)[O-])cc1)[n+]1ccccc1 (centres undefined) . 27.3
